- TARGET_ENTITY: T1, LAG-3-hFc protein (human LAG-3 extracellular region with hFc tag) (human, UniProt P18627 23-450)
- T1 construct: also called hLAG-3-hFc; LAG-3 protein; not shown: human IgG Fc fragment (hFc) of the pCpC vector
- T1 sequence: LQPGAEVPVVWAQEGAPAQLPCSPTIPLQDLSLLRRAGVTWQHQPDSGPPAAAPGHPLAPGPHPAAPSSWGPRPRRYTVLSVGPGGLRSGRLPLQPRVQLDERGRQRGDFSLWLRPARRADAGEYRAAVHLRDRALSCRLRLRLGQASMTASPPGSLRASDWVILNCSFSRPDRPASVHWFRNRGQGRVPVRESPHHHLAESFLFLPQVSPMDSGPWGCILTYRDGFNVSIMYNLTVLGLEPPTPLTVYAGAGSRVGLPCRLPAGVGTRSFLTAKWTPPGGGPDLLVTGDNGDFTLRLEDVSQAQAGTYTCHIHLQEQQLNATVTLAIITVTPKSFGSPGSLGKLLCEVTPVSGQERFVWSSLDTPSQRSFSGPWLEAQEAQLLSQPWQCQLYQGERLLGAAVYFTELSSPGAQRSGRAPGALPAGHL
- ASSAY_EXPLANATION: FACS, inhibition of LAG-3-hFc binding to MHC II on Raji cells, antibody 7.407 nM
PROPERTY_LABEL: Inhibition rate (%)
Numeric only. Scale: %

>>> experimental_value("405B8H3 mouse-human chimeric antibody (antibody, V domains shown, also called mAb103-405B8H3) VH: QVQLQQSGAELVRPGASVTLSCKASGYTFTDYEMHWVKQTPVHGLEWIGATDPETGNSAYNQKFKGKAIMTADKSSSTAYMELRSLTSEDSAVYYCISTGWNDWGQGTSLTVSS VL: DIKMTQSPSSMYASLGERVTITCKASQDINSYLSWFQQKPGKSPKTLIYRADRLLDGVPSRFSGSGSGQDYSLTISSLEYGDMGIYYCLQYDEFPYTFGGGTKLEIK")
95.1

# context switch: different binder, same Inhibition rate (%)
I'd like to know its Inhibition rate (%). The binder in question is 409B11E12 mouse-human chimeric antibody (antibody, V domains shown, also called mAb104-409B11E12) VH: QVQLQQSGAELVRPGASVTLSCKASGYTFTDYEMHWVKQTTVHGLEWIGATDPETSYSAYNQKFKGKAILTADKSSSTAYMELRSLTSEDSAVYYCIATGWNDWGQGTSLTVSS VL: DLKMTQSPSSMYASLGERVTITCKASQDINSYLSWFQQKPGKSPKTLIYRANRLLDGVPSRFSGSGSGQDYSLTISSLEYEDMGIYYCLQYDEFPYTFGGGTKLEIK
95.1
